Cited source: the supplement of paper PMC9170038

Test system: MS2 coat protein
Assay: apparent KD of MS2 coat protein; designed switch direction (-1 OFF switch, 1 ON switch): -1; higher = weaker reporter binding
Conditions: Eterna round: R95; input ligand: microRNA oligo, concentration not stated
reportedProperty: apparent KD of MS2 coat protein (nM)

CCUCGACGGUAGGAUAUCGUCAAACUAUUGUGAUGAGAAGGACUGACAUGAGGAUCACCCAUGUUAACGUGAUG [Exclusion 6 - 7:a] (puzzle: Exclusion 6) : 14.8
AGUACUUACACGAAAGUGUAAGUACAAUAAGCUUGUGGAACAUGAGGAUCACCCAUGUCCUCAUAAGCUCGUCUUAU [Mat - Sensor v3 - Turn-off var 2 - D28] (puzzle: Sensor v3, turn-off variant 2) : 75.2
GGUGGACAUGAGGAUCACCCAUGUGAGGAUAUCGGCUGGCUAGCGGCGGACGGCUUCUCGAGAAGGCGCAUUGU [Exclusion 1 V83] (puzzle: Exclusion 1) : 46.3
CUUUUGUGAGGAUAUUAGUUGUAAAUAAAUAAAAUUACUACUGAGAAGGCACAUGAGGAUCACCCAUGUUCCUC [salish99_ex4_r3_049] (puzzle: Exclusion 4) : 33.2
UAGAUGUGAGGAUAUGGUAAAGAUAAGAUGAUGAAAGAACUCCAGAAGGCACAUGAGGAUCACCCAUGUAGAUG [JL-ex4-2.15 Jieux mod] (puzzle: Exclusion 4) : 22.3
